Entry source: the METLIN SMRT retention time set (Domingo-Almenara et al. 2019)

test: gradient 5% acetonitrile 3 min, to 50% in 2 min, to 85% in 15 min, held 3 min, 100 µL/min; details: column: Zorbax Extend-C18 2.1 x 50 mm; eluents: water / acetonitrile, 0.1% formic acid
Hi there, I'd appreciate the recorded RP-LC retention time for every entry that follows.
Just the number please, in s, no unit attached.

Quick note, RP-LC retention time for Cc1cc(N2CCC(NC(=O)Nc3ccc(Cl)cc3)C2=O)ccc1F (configuration not stated) landed at 920

Quick note, RP-LC retention time for O=C(c1ccco1)N1CCc2c(c(CO)nn2Cc2ccccc2)C1 landed at 657

Quick note, RP-LC retention time for CC1CCN(S(=O)(=O)c2ccc(C(=O)Nc3nc4c(s3)CCc3ccccc3-4)cc2)CC1 landed at 1290

Quick note, RP-LC retention time for CC(C)(C)CCN1CCC(F)(c2nc(-c3ccccc3)no2)CC1 landed at 789

Quick note, RP-LC retention time for O=C(c1ccncc1)N1CCC(n2c(-c3ccco3)nc3cccnc32)C1 (configuration not stated) landed at 689

Quick note, RP-LC retention time for Cc1nn(C)c(C)c1S(=O)(=O)N1CCC(n2c(C)cnc2-c2ccncc2)C1 (configuration not stated) landed at 588

Quick note, RP-LC retention time for CC1CCCN(S(=O)(=O)c2ccc(-n3cnc(C(=O)N4CCCC4)c3)nc2)C1 (configuration not stated) landed at 817

Quick note, RP-LC retention time for CCOC(=O)c1ccc(Nc2c(-c3ccccc3)nc3cnccn23)cc1 landed at 849

Quick note, RP-LC retention time for CCOC(=O)C1CCN(S(=O)(=O)c2cc3n(c2)CCCN(CC)C3=O)CC1 landed at 679

Quick note, RP-LC retention time for COc1c(O)ccc2c1CN1CCc3cc4c(cc3C1C2)OCO4 (configuration not stated) landed at 688

Quick note, RP-LC retention time for COc1cccc(NC(=O)N2CCC3(CC2)NC(=O)c2cc(Cl)ccc2N3C)c1 landed at 780

Quick note, RP-LC retention time for CC1Oc2ccc(-c3csc(NC(=O)c4ccccc4Cl)n3)cc2N(C)C1=O (configuration not stated) landed at 968

* * *

assay: gradient 5% acetonitrile 3 min, to 50% in 2 min, to 85% in 15 min, held 3 min, 100 µL/min; details: column: Zorbax Extend-C18 2.1 x 50 mm; eluents: water / acetonitrile, 0.1% formic acid
Hi there, I'd appreciate the recorded RP-LC retention time for every entry that follows.

Quick note, RP-LC retention time for O=C(NCC1CCCO1)C1COC2(CCN(C(=O)c3ccccc3F)CC2)N1C(=O)c1ccccc1 (centres undefined) landed at 673 s

Quick note, RP-LC retention time for CCNc1cc(N2CCCC(CCC(=O)NC(C)c3c(C)nn(C)c3C)C2)ncn1 (centres undefined) landed at 582 s

Quick note, RP-LC retention time for Cc1cnn(Cc2c(C(=O)N3CCc4nn(C)c(=O)n4CC3)noc2C)c1 landed at 602 s

Quick note, RP-LC retention time for CCn1c(=O)c2ccccc2n(Cc2nc(-c3ccc(F)c(Br)c3)no2)c1=O landed at 1120 s

Quick note, RP-LC retention time for CCOCCc1c(O)nc(SC)[nH]c1=O landed at 650 s

Quick note, RP-LC retention time for CCOc1cc(=O)n2c(c1C(=O)Nc1cc(Cl)ccc1F)CCCC2 landed at 806 s

Quick note, RP-LC retention time for COc1ccccc1-c1noc(C2CCCN2C(=O)CSc2ccncc2)n1 (centres undefined) landed at 611 s

Quick note, RP-LC retention time for O=C(NC1CCCCC1)c1ccc2c(c1)nc1n2CCN(C2CCCCC2)C1=O landed at 796 s

Quick note, RP-LC retention time for CCCn1cnc2cc(CNC(=O)CCC3CCCC3)ccc21 landed at 649 s

Quick note, RP-LC retention time for CCn1c(CC2C(=O)Nc3ccccc32)nc2ccccc2c1=O (centres undefined) landed at 730 s

Quick note, RP-LC retention time for Cc1nc(N(C)C(=O)Cc2ccc(-c3ccccn3)cc2)sc1S(N)(=O)=O landed at 699 s

Quick note, RP-LC retention time for N#CC1=C(SCC(=O)NCc2ccccc2)NC(=O)CC1c1ccco1 (centres undefined) landed at 770 s

Quick note, RP-LC retention time for CCN1C(=O)COc2ccc(-c3nc(NC(=O)CC(C)C)sc3C)cc21 landed at 962 s

Quick note, RP-LC retention time for CCOc1ccc(S(=O)(=O)N2CCC(C(=O)NCCc3ccc(OC)c(OC)c3)CC2)cc1C landed at 901 s

Quick note, RP-LC retention time for Cc1ccc(NS(=O)(=O)c2ccc(-c3c(C)noc3C)cc2)c(C)c1 landed at 985 s

Quick note, RP-LC retention time for COc1ccc(-c2nnc3ccc(SCC(=O)Nc4cc(C)on4)nn23)cc1OC landed at 606 s

Quick note, RP-LC retention time for Cn1c(=O)sc2cc(S(=O)(=O)N3CCC(C(=O)Nc4cccc(C#N)c4)CC3)ccc21 landed at 860 s

Quick note, RP-LC retention time for CN(C)C(=O)c1ccc2c(c1)nnn2CCNC(=O)Nc1ccccc1F landed at 638 s

Quick note, RP-LC retention time for COc1ccc(N2CCN(S(=O)(=O)c3cc(-c4cnn5c(C)cc(C)nc45)ccc3C)CC2)cc1 landed at 1170 s
